- study_target: T1, human G-CSFR expressed on cells (Homo sapiens, UniProt Q99062 25-836)
- T1 sequence: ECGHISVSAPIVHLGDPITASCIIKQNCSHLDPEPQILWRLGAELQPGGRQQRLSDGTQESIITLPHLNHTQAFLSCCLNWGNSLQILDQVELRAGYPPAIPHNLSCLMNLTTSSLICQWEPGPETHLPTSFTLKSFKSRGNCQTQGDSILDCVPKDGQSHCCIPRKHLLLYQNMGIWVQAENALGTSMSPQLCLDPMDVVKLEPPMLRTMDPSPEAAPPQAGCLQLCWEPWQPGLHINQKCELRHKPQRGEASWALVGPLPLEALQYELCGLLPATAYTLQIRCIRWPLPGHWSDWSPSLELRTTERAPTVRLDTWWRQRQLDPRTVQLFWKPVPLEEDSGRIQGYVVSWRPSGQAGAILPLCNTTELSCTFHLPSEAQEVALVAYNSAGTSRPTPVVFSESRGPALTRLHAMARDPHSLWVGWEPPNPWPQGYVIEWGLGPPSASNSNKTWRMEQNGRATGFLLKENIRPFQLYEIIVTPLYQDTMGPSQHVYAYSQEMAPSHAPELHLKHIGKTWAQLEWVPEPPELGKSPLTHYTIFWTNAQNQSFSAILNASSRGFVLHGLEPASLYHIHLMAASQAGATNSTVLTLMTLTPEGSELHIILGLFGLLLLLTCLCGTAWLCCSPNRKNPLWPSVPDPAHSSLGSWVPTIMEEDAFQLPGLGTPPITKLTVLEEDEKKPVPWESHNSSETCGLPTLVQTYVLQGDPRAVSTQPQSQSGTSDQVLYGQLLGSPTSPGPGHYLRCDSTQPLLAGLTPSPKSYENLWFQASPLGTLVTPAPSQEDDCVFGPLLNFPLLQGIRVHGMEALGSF
- test_details: cell-based or functional assay
The binders listed here are annotated with their IC50 (nM), inhibition of G-CSF-mediated proliferation of BaF3 cells.
Write it as a number; the unit nM goes unstated.

[
  {
    "binder": "C1.2G-83 (antibody, human IgG4, V domains shown, HCDR3 wt (VH of C1.2G); also called antibody 83) VH: EVQLLESGGGLVQPGGSLRLSCAASGFTFSLYWMGWVRQAPGKGLEWVSSISSSGGVTPYADSVKGRFTISRDNSKNTLYLQMNSLRAEDTAVYYCAKLGELGWFDPWGQGTLVTVSS VL: DIQMTQSPSSLSASVGDRVTITCRASQGISSYLNWYQQKPGKAPKLLIYYASNLQNGVPSRFSGSGSGTDFTLTISSLQPEDFATYYCQQSWMYALFFGGGTKVEIK",
    "measured_number": 0.21
  },
  {
    "binder": "C1.2G-63 (antibody, human IgG4, V domains shown, HCDR3 wt (VH of C1.2G); also called antibody 63) VH: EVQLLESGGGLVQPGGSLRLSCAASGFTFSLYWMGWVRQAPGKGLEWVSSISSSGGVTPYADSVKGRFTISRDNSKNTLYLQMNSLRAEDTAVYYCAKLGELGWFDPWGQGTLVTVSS VL: DIQMTQSPSSLSASVGDRVTITCRASQGISSYLNWYQQKPGKAPKLLIYYASNLQNGVPSRFSGSGSGTDFTLTISSLQPEDFATYYCANSWGYPLTFGGGTKVEIK",
    "measured_number": 0.26
  },
  {
    "binder": "C1.2G-986 (antibody, human IgG4, V domains shown, also called antibody 986) VH: EVQLLESGGGLVQPGGSLRLSCAASGFTFSLYWMGWVRQAPGKGLEWVSSISSSGGVTPYADSVKGRFTISRDNSKNTLYLQMNSLRAEDTAVYYCAKLGELGFFQEWGQGTLVTVSS VL: DIQMTQSPSSLSASVGDRVTITCRASQGISSYLNWYQQKPGKAPKLLIYYASNLQNGVPSRFSGSGSGTDFTLTISSLQPEDFATYYCQQSYAYPQQFGGGTKVEIK",
    "measured_number": 0.28
  },
  {
    "binder": "C1.2G-1003 (antibody, human IgG4, V domains shown, also called antibody 1003) VH: EVQLLESGGGLVQPGGSLRLSCAASGFTFSLYWMGWVRQAPGKGLEWVSSISSSGGVTPYADSVKGRFTISRDNSKNTLYLQMNSLRAEDTAVYYCAKLGELGSGSTWGQGTLVTVSS VL: DIQMTQSPSSLSASVGDRVTITCRASQGISSYLNWYQQKPGKAPKLLIYYASNLQNGVPSRFSGSGSGTDFTLTISSLQPEDFATYYCQQSWHYPLTFGGGTKVEIK",
    "measured_number": 0.26
  },
  {
    "binder": "C1.2G-77 (antibody, human IgG4, V domains shown, HCDR3 wt (VH of C1.2G); also called antibody 77) VH: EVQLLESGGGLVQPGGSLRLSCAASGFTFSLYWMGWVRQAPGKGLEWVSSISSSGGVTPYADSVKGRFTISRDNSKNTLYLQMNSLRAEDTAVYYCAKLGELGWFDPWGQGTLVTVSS VL: DIQMTQSPSSLSASVGDRVTITCRASQGISSYLNWYQQKPGKAPKLLIYYASNLQNGVPSRFSGSGSGTDFTLTISSLQPEDFATYYCEQGWNYPLTFGGGTKVEIK",
    "measured_number": 0.23
  },
  {
    "binder": "C1.2G-969 (antibody, human IgG4, V domains shown, also called antibody 969) VH: EVQLLESGGGLVQPGGSLRLSCAASGFTFSLYWMGWVRQAPGKGLEWVSSISSSGGVTPYADSVKGRFTISRDNSKNTLYLQMNSLRAEDTAVYYCAKLGELGQYQFWGQGTLVTVSS VL: DIQMTQSPSSLSASVGDRVTITCRASQGISSYLNWYQQKPGKAPKLLIYYASNLQNGVPSRFSGSGSGTDFTLTISSLQPEDFATYYCQQSFQYAQHFGGGTKVEIK",
    "measured_number": 0.41
  },
  {
    "binder": "C1.2G-79 (antibody, human IgG4, V domains shown, HCDR3 wt (VH of C1.2G); also called antibody 79) VH: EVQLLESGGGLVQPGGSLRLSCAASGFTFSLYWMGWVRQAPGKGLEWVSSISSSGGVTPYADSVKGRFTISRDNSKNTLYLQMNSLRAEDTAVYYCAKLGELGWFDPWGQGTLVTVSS VL: DIQMTQSPSSLSASVGDRVTITCRASQGISSYLNWYQQKPGKAPKLLIYYASNLQNGVPSRFSGSGSGTDFTLTISSLQPEDFATYYCQVSWEYPLTFGGGTKVEIK",
    "measured_number": 0.31
  },
  {
    "binder": "C1.2G-97 (antibody, human IgG4, V domains shown, HCDR3 wt (VH of C1.2G); also called antibody 97) VH: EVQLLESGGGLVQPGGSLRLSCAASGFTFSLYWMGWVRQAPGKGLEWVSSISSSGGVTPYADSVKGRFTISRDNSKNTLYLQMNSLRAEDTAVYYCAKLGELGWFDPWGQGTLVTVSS VL: DIQMTQSPSSLSASVGDRVTITCRASQGISSYLNWYQQKPGKAPKLLIYYASNLQNGVPSRFSGSGSGTDFTLTISSLQPEDFATYYCQQSFMYPLYFGGGTKVEIK",
    "measured_number": 0.21
  },
  {
    "binder": "C1.2G-994 (antibody, human IgG4, V domains shown, also called antibody 994) VH: EVQLLESGGGLVQPGGSLRLSCAASGFTFSLYWMGWVRQAPGKGLEWVSSISSSGGVTPYADSVKGRFTISRDNSKNTLYLQMNSLRAEDTAVYYCAKLGELGQFMDWGQGTLVTVSS VL: DIQMTQSPSSLSASVGDRVTITCRASQGISSYLNWYQQKPGKAPKLLIYYASNLQNGVPSRFSGSGSGTDFTLTISSLQPEDFATYYCQQSLEYPQMFGGGTKVEIK",
    "measured_number": 0.49
  }
]

Turning now to a further binder:
Query C1.2G-54 (antibody, human IgG4, V domains shown, also called antibody 54) VH: EVQLLESGGGLVQPGGSLRLSCAASGFTFSLYWMGWVRQAPGKGLEWVSSISSSGGVTPYADSVKGRFTISRDNSKNTLYLQMNSLRAEDTAVYYCAKLGELGMFLEWGQGTLVTVSS VL: DIQMTQSPSSLSASVGDRVTITCRASQGISSYLNWYQQKPGKAPKLLIYYASNLQNGVPSRFSGSGSGTDFTLTISSLQPEDFATYYCQQSMWMPMGFGGGTKVEIK yields IC50 (nM), inhibition of G-CSF-mediated proliferation of BaF3 cells of 0.5
